Please go through the items and note down their viscosity.
conditions: 323.15 K; 101 kPa; Liquid; Falling or rolling sphere viscometry
One number for each entry, in mPa·s.

CC(C)CCO [3-methylbutan-1-ol] ... 1.841
CCCCCCO [hexan-1-ol] ... 2.241
CC(C)CO [2-methyl-1-propanol] ... 1.652

Lab note: each molecule below needs its viscosity filled in.
1. CCCCO [butan-1-ol]
2. CCCO [propan-1-ol]

Key:
1: 1.422; 2: 1.124

Exercise: Given CCCC(=O)OCC [ethyl butanoate] , respond with its viscosity.
Key: 0.487

====

conditions: 298.15 K; 101 kPa; Liquid; Falling or rolling sphere viscometry
Binary call on viscosity: Criterion met from 3 mPa·s upward, Criterion not met beneath that.

CCCC(=O)OCC [ethyl butanoate] ... Criterion not met
CCCCO ... Criterion not met

Exercise: API: above_or_equal(metric=viscosity, cutoff=3 mPa·s) for item `CC(C)CO`
Key: Criterion met

Exercise: API: above_or_equal(metric=viscosity, cutoff=3 mPa·s) for item `CCCCCCO`
Key: Criterion met

Exercise: API: above_or_equal(metric=viscosity, cutoff=3 mPa·s) for item `CC(C)CCO`
Key: Criterion met

Exercise: API: above_or_equal(metric=viscosity, cutoff=3 mPa·s) for item `CCCO`
Key: Criterion not met

Each recorded value in this set is attributed to the NIST ThermoML archive (doi:10.1021/je5005752).
